# method: Probe fluorescence ratio response to linolenic acid relative to ADIFAB2
# Type: binding
# cond: response relative to ADIFAB2
Checkbox rule: DR/DR LNA lower than 1 = Criterion met; DR/DR LNA not lower than 1 = Criterion not met.

Query block: Is DR/DR LNA of 23W1, 72A (protein, listed as Rattus norvegicus, PEPTIDE (1)...(131) wild-type rat intestinal fatty acid binding protein) AFDGTWKVDRNENYEKFMEKMGWNVVKRKLGAHDNLKLTITQEGNKFTVKESSNFRNIDVVFELGVDFAYSAADGTELTGTWTMEGNKLVGKFKRVDNGKELIAVREISGNELIQTYTYEGVEAKRIFKKE strictly below 1?
Result block: Criterion met

Query block: For 17N, 72A (protein, listed as Rattus norvegicus, PEPTIDE (1)...(131) wild-type rat intestinal fatty acid binding protein) AFDGTWKVDRNENYEKNMEKMGINVVKRKLGAHDNLKLTITQEGNKFTVKESSNFRNIDVVFELGVDFAYSAADGTELTGTWTMEGNKLVGKFKRVDNGKELIAVREISGNELIQTYTYEGVEAKRIFKKE , is the recorded DR/DR LNA below the cut-off of 1?
Result block: Criterion met

Query block: Input 55E, 72A (protein, listed as Rattus norvegicus, PEPTIDE (1)...(131) wild-type rat intestinal fatty acid binding protein) AFDGTWKVDRNENYEKFMEKMGINVVKRKLGAHDNLKLTITQEGNKFTVKESSNERNIDVVFELGVDFAYSAADGTELTGTWTMEGNKLVGKFKRVDNGKELIAVREISGNELIQTYTYEGVEAKRIFKKE ; condition: DR/DR LNA strictly below 1. Does it hold?
Result block: Criterion met

Query block: Take the molecule 72V 73L 74W (protein, listed as Rattus norvegicus, PEPTIDE (1)...(131) wild-type rat intestinal fatty acid binding protein) AFDGTWKVDRNENYEKFMEKMGINVVKRKLGAHDNLKLTITQEGNKFTVKESSNFRNIDVVFELGVDFAYSVLWGTELTGTWTMEGNKLVGKFKRVDNGKELIAVREISGNELIQTYTYEGVEAKRIFKKE and say whether its DR/DR LNA is less than 1.
Result block: Criterion not met

Query block: Is DR/DR LNA of 62W, 72A (protein, listed as Rattus norvegicus, PEPTIDE (1)...(131) wild-type rat intestinal fatty acid binding protein) AFDGTWKVDRNENYEKFMEKMGINVVKRKLGAHDNLKLTITQEGNKFTVKESSNFRNIDVVWELGVDFAYSAADGTELTGTWTMEGNKLVGKFKRVDNGKELIAVREISGNELIQTYTYEGVEAKRIFKKE strictly below 1?
Result block: Criterion not met

Query block: Please check: DR/DR LNA for 18I 31V 73G 72A (protein, listed as Rattus norvegicus, PEPTIDE (1)...(131) wild-type rat intestinal fatty acid binding protein) AFDGTWKVDRNENYEKFIEKMGINVVKRKLVAHDNLKLTITQEGNKFTVKESSNFRNIDVVFELGVDFAYSAGDGTELTGTWTMEGNKLVGKFKRVDNGKELIAVREISGNELIQTYTYEGVEAKRIFKKE , strictly under 1 or not?
Result block: Criterion not met
